target: HLA-DQ molecule DQB1*0502 (human); test: competition: inhibition of radiolabeled peptide binding to purified HLA
pIC50: −log10 of the molar value.
endpoint label: pIC50

1. INELIASGSEKLASV [Alt a 5 peptide, position 51, Peptide ID 3324.0065] :: 4.59

Numbers sourced from patent US20150004189A1.
